Molecular target: T1, human MASP-2cf CCP1-CCP2-SP (human, UniProt O00187 298-686, limits assumed)
T1 construct: domain: CCP1-CCP2-SP; also called human MASP-2 catalytic fragment
T1 sequence (O00187 298-686 limits assumed): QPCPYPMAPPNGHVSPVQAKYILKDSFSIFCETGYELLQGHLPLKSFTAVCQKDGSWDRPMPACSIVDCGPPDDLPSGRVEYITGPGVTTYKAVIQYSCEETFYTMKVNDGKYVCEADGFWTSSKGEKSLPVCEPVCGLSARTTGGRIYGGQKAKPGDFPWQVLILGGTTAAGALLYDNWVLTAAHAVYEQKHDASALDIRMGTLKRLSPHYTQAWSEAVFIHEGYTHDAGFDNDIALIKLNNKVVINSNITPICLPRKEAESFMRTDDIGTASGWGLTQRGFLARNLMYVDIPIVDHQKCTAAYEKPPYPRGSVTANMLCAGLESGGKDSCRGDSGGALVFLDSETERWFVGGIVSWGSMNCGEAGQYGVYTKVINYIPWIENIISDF
Experiment: SPR, target immobilised
Where no end group is shown, it is not given here.
endpoint: log10(koff) (log10 of the value in s⁻¹)

[[record]]
binder = "EVO214 (designed binder, not fully specified; ends and bridges not checked, Modified TFPI-D2 Kunitz domain; made as m1) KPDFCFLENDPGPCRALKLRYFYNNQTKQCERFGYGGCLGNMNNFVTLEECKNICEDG"
endpointvalue = -4.32

[[record]]
binder = "EVO21 (designed binder, not fully specified; ends and bridges not checked, Modified TFPI-D2 Kunitz domain; made as m1) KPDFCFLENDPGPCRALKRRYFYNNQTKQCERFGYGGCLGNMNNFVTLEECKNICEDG"
endpointvalue = -4.31

[[record]]
binder = "EVO21a (designed binder, not fully specified; cysteine pairing not given here, Modified TFPI-D2 Kunitz domain; made as m1) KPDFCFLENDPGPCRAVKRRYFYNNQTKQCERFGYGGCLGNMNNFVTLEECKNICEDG"
endpointvalue = -3.08

[[record]]
binder = "EVO216 (designed binder, not fully specified; cysteine pairing not given here, Modified TFPI-D2 Kunitz domain; made as m1) KPDFCFLENDPGWCRAAKLRYFYNNQTKQCERFGYGGCLGNMNNFVTLEECKNICEDG"
endpointvalue = -3.14

[[record]]
binder = "EVO22a (designed binder, Modified TFPI-D2 Kunitz domain; made as m1) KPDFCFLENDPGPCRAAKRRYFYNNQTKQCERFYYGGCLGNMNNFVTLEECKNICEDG"
endpointvalue = -4.04

[[record]]
binder = "EVO213 (designed binder, Modified TFPI-D2 Kunitz domain; made as m1) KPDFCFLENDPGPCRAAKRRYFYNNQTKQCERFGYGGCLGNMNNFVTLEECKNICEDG"
endpointvalue = -3.28

[[record]]
binder = "EVO25 (designed binder, not fully specified; cysteine pairing not given here, Modified TFPI-D2 Kunitz domain; made as m1) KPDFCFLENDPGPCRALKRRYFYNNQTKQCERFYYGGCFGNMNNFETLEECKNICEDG"
endpointvalue = -3.36

[[record]]
binder = "EVO223 (designed binder, Modified TFPI-D2 Kunitz domain; made as m1) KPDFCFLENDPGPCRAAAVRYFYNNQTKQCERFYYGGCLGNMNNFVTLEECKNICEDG"
endpointvalue = -4.32

[[record]]
binder = "EVO2 (designed binder, not fully specified; ends and bridges not checked, Modified Kunitz domain TFPI-D2 of human TFPI-1; recombinant from E. coli, freed from a His6-S100A4 fusion by TEV protease; also called TFMI-2b) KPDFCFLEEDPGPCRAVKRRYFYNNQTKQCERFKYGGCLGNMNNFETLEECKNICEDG"
endpointvalue = -2.85

[[record]]
binder = "EVO222 (designed binder, not fully specified; cysteine pairing not given here, Modified TFPI-D2 Kunitz domain; made as m1) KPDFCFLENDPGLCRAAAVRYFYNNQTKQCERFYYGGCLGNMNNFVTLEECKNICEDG"
endpointvalue = -4.37

[[record]]
binder = "EVO2d (designed binder, not fully specified; cysteine pairing not given here, Modified TFPI-D2 Kunitz domain; made as m1) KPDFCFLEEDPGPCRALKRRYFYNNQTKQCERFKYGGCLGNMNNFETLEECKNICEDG"
endpointvalue = -2.97

